Reference for the values: patent US20220040158A1

Assay: Phase I oral single ascending dose study of AZD0328 in healthy volunteers (safety, tolerability, pharmacokinetics)
Assay type: in vivo, human
Conditions: human, plasma; healthy volunteers, oral single dose 0.025 mg, cohort geometric mean; read-out: tmax
reported metric: tmax (h)

c1cnc2c(c1)C[C@@]1(CN3CCC1CC3)O2
1.44

###

Biological target: α7 nAChR (Homo sapiens, UniProt P36544)
Sequence (P36544 23-502): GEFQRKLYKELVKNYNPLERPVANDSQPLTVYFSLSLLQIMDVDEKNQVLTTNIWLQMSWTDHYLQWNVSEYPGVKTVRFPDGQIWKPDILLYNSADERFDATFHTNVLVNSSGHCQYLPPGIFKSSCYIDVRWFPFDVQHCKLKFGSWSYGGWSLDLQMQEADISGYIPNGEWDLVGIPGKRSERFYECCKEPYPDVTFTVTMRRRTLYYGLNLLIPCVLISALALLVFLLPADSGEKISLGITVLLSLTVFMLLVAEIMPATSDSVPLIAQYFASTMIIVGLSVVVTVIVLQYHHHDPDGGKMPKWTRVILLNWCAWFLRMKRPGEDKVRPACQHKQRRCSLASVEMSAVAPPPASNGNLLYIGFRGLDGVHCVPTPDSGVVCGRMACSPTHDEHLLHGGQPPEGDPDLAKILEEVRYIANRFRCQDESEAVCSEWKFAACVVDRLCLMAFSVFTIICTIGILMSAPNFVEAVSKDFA
Test: activation of whole cell current at α7 nAChR
Assay type: cell-based
Settings: read-out: activation of whole cell current IC50
reported metric: EC50 (nM)

c1cnc2c(c1)C[C@@]1(CN3CCC1CC3)O2
2900

###

Assay: Phase I oral single ascending dose study of AZD0328 in healthy volunteers (safety, tolerability, pharmacokinetics)
Assay type: in vivo, human
Details: healthy volunteers, oral single dose 0.025 mg, cohort geometric mean
Source text: […]
reported metric: Cmax (nM)

c1cnc2c(c1)C[C@@]1(CN3CCC1CC3)O2 [AZD0328]
0.63

###

Test: Phase I oral single ascending dose study of AZD0328 in healthy volunteers (safety, tolerability, pharmacokinetics)
Type: in vivo, human
Details: human, plasma; healthy volunteers, oral single dose 0.23 mg, cohort geometric mean; read-out: tmax
reported metric: tmax

c1cnc2c(c1)C[C@@]1(CN3CCC1CC3)O2
1.38 h

###

Experiment: Phase I oral single ascending dose study of AZD0328 in healthy volunteers (safety, tolerability, pharmacokinetics)
Format: in vivo, human
Settings: human, plasma, oral; mean over cohorts
reported metric: half-life

c1cnc2c(c1)C[C@@]1(CN3CCC1CC3)O2 [AZD0328]
1.81 h

###

Assay: Phase I oral single ascending dose study of AZD0328 in healthy volunteers (safety, tolerability, pharmacokinetics)
Type: in vivo, human
Conditions: healthy volunteers, oral single dose 2 mg, cohort geometric mean
reported metric: Cmax (nM)

c1cnc2c(c1)C[C@@]1(CN3CCC1CC3)O2
43.9

###

Molecular target: α7 nAChR (Homo sapiens)
Assay: Ki for efficacy used as threshold in PK figures
Conditions: threshold indicated in FIGS. 3-5
reported metric: Ki (nM)

c1cnc2c(c1)C[C@@]1(CN3CCC1CC3)O2
5
